tgt: IRAK4 (Homo sapiens, UniProt Q9NWZ3)
Construct: endogenous in cells; host or cells: THP-1 cells
Sequence (Q9NWZ3 whole entry): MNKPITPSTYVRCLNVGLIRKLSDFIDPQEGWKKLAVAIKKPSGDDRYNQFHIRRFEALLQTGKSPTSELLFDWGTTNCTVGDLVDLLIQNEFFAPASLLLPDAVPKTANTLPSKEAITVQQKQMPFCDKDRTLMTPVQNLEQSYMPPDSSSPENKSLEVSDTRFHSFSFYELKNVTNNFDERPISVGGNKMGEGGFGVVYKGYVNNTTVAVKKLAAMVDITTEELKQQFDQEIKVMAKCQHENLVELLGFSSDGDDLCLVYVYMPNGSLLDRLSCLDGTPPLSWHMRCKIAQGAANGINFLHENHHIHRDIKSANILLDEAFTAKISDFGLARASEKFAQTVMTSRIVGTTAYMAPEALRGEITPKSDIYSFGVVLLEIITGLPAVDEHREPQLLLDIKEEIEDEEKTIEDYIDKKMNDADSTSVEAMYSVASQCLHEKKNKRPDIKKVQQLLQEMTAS
assay text: LVL THP1 HTRF (THP1 Homogeneous Time Resolved Fluorescence)
Assay type: cell-based
stated conditions: THP1 cells, 18 h incubation with compound

- compound: "C[C@H](C#N)Nc1cc(Nc2ncc(C#N)cc2Cl)ncc1-n1cc([C@H]2CC[C@H](CCN3CCN(c4ccc(C5CCC(=O)NC5=O)cc4)CC3)CC2)nn1 (some centres unmarked)"
  result unit: "%"
  LVL THP1 HTRF YMIN: 1.8
- compound: "C[C@H](C#N)Nc1nc(-n2ncc3cc(C#N)cnc32)ncc1C(=O)N[C@H]1CC[C@H](CCN2CCN(c3ccc(C4CCC(=O)NC4=O)cc3)CC2)CC1 (some centres unmarked)"
  result unit: "%"
  LVL THP1 HTRF YMIN: 7.2
- compound: "C[C@H](C#N)Nc1cc(-n2ncc3cnc(N)nc32)ncc1-n1cc(C2CCC(CCN3CCN(c4ccc(C5CCC(=O)NC5=O)cc4)CC3)CC2)nn1 (some centres unmarked)"
  result unit: "%"
  LVL THP1 HTRF YMIN: 1.37
- compound: "C[C@H](C#N)Nc1cc(-n2ncc3cc(C#N)cnc32)ncc1-n1cc([C@H]2CC[C@H](CCN3CCC(c4ccc(N5CCC(=O)NC5=O)cc4)C3)CC2)nn1 (single isomer, unassigned) [P-491]"
  result unit: "%"
  LVL THP1 HTRF YMIN: 14.9
- compound: "C[C@H](C#N)Nc1cc(-n2ncc3cc(C#N)c(N)nc32)ncc1-n1cc([C@H]2CC[C@H](CCN3CCC(c4ccc([C@@]5(F)CCC(=O)NC5=O)cc4)CC3)CC2)nn1 (single isomer, unassigned) [P-318]"
  result unit: "%"
  LVL THP1 HTRF YMIN: 47.8

====

tgt: IRAK4 (Homo sapiens)
Construct: endogenous in cells; host or cells: THP-1 cells
assay text: ALE THP1 HTRF (Advanced Lipoxidation End Product THP1 Homogeneous Time Resolved Fluorescence)
Assay type: cell-based
stated conditions: THP1 cells
Entries and their ALE THP1 HTRF YMIN
measurement name: ALE THP1 HTRF YMIN (%)

- compound: "C[C@@H]1CN(c2ccc(C3CCC(=O)NC3=O)cc2)C[C@H](C)N1CCC1CCC(NC(=O)c2cnc(-n3ncc4cc(C#N)cnc43)cc2NC2CCCC2)CC1 (stereo partly drawn)"
  tgt: "IRAK4 (Homo sapiens)"
  measurement name: "ALE THP1 HTRF YMIN"
  observed value: 9.7
- compound: "O=C1CCC(c2ccc(N3CCN(CCC4CCC(NC(=O)c5cnc(Nc6ccc7ncsc7c6)cc5NC5CCCC5)CC4)CC3)cc2)C(=O)N1 (stereo not drawn)"
  tgt: "IRAK4 (Homo sapiens)"
  measurement name: "ALE THP1 HTRF YMIN"
  observed value: 8.1
- compound: "N#Cc1cnc2c(cnn2-c2cc(NC3CCCC3)c(C(=O)N[C@H]3CC[C@H](CN4CCN(c5ccc6c(c5)C(=O)N(C5CCC(=O)NC5=O)C6=O)CC4)CC3)cn2)c1 (stereo partly drawn)"
  tgt: "IRAK4 (Homo sapiens)"
  measurement name: "ALE THP1 HTRF YMIN"
  observed value: 36.9
- compound: "N#Cc1cnc2c(cnn2-c2cc(NC3CC3)c(C(=O)NC3CCC(CCN4CCN(c5ccc([C@H]6CCC(=O)NC6=O)cc5)CC4)CC3)cn2)c1 (stereo partly drawn)"
  tgt: "IRAK4 (Homo sapiens)"
  measurement name: "ALE THP1 HTRF YMIN"
  observed value: 9.9
- compound: "CCNc1cc(Nc2ccc3ncc(F)cc3n2)ncc1C(=O)N[C@H]1CC[C@H](CCN2CCN(c3ccc(C4CCC(=O)NC4=O)cc3)CC2)CC1 (stereo partly drawn)"
  tgt: "IRAK4 (Homo sapiens)"
  measurement name: "ALE THP1 HTRF YMIN"
  observed value: 42.1
- compound: "N#Cc1cnc2c(cnn2-c2cc(NC3CCCC3)c(C(=O)NC3CCC(C(=O)N4CCC(c5ccc6c(c5)C(=O)N(C5CCC(=O)NC5=O)C6)CC4)CC3)cn2)c1 (stereo not drawn)"
  tgt: "IRAK4 (Homo sapiens)"
  measurement name: "ALE THP1 HTRF YMIN"
  observed value: 24.0
